Origin of the recorded values: ChEMBL document CHEMBL2424627

experiment: Cytotoxicity against human THP1 cells assessed as cell viability at 1 ug/ml after 24 hrs by CCK-8 assay; details: THP-1 cells
measurement.label: viability at 24 h, 1 ug/ml (%)
Give bare numbers, in %.

Query block: State its viability at 24 h, 1 ug/ml for this molecule: `C[C@@H]1C[C@H]2[C@@H]3CCC4=CC(=O)C=C[C@]4(C)[C@@]3(F)[C@@H](O)C[C@]2(C)[C@@]1(O)C(=O)CO`
Result block: 0

###

assay: Cytotoxicity against human THP1 cells assessed as cell viability at 10 ug/ml after 24 hrs by CCK-8 assay; assay type: cell-based; conditions: THP-1 cells, read-out: Activity
Label rule met when viability at 24 h, 10 ug/ml is strictly below 30%; otherwise label rule not met.

smiles.data	label.class
CCOC(=O)c1cn(-c2ccc(F)cc2)nc1-c1sc(N(CC)c2ccccc2)nc1-c1ccccc1	rule met
CCOC(=O)c1c[nH]nc1-c1sc(N(CC)c2ccccc2)nc1-c1ccccc1	rule not met
CCOC(=O)c1cn(-c2ccc(Cl)cc2)nc1-c1sc(N(Cc2ccccc2)c2ccccc2)nc1-c1ccccc1	rule met
CCOC(=O)c1cn(-c2ccc(F)cc2)nc1-c1sc(N(Cc2ccccc2)c2ccccc2)nc1-c1ccccc1	rule met
CCOC(=O)c1cn(-c2ccc(F)cc2)nc1-c1sc(N(C)c2ccccc2)nc1-c1ccccc1	rule not met

Query block: Given `CCOC(=O)c1cn(-c2ccc(Cl)cc2)nc1-c1sc(N(CC)c2ccccc2)nc1-c1ccccc1` , is recorded viability at 24 h, 10 ug/ml strictly lower than 30%?
Result block: rule met

Query block: Below 30% on viability at 24 h, 10 ug/ml? Entry `CCOC(=O)c1c[nH]nc1-c1sc(N(C)c2ccccc2)nc1-c1ccccc1`
Result block: rule met

Query block: # strict comparison: is reported viability at 24 h, 10 ug/ml < 30%? input = `CCOC(=O)c1cn(-c2ccc([N+](=O)[O-])cc2[N+](=O)[O-])nc1-c1sc(N(CC)c2ccccc2)nc1-c1ccccc1`
Result block: rule not met
